Tested on: PXR:RXRa (NR concentration 270 nM, RXRa partner concentration 90 nM)
Assay summary: PBM binding z-score (relative to random genomic background probes); higher = stronger binding; sequences stand for … in GC…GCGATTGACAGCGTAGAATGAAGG

Residue sequence	PBM binding z-score
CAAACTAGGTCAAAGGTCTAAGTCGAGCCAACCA	3.11
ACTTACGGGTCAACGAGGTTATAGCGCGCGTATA	5.22
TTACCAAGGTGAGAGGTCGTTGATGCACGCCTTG	2.47

* * *

System: PPARg:RXRa IVT, anti-PPARg (NR concentration 270 nM, RXRa partner concentration 90 nM)
Assay summary: PBM binding z-score (relative to random genomic background probes); higher = stronger binding; sequences stand for … in GC…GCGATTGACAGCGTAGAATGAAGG
Outcome measure: PBM binding z-score

Residue sequence	Outcome measure	Observed value
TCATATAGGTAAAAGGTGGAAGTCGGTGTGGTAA	PBM binding z-score	3.56
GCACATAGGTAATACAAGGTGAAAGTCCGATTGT	PBM binding z-score	1.1
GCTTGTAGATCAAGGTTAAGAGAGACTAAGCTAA	PBM binding z-score	1.01
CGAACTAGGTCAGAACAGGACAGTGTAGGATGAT	PBM binding z-score	7.53
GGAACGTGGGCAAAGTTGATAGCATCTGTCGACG	PBM binding z-score	0.169
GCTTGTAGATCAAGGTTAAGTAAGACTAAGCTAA	PBM binding z-score	1.73
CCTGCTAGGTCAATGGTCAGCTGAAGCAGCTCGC	PBM binding z-score	4.13
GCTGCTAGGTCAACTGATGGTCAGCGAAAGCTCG	PBM binding z-score	4.1
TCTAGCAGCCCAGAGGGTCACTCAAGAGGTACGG	PBM binding z-score	-0.253
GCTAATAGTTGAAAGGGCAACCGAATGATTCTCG	PBM binding z-score	1.27
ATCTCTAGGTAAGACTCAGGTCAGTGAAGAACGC	PBM binding z-score	1.67
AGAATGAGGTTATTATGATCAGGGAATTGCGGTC	PBM binding z-score	2.89
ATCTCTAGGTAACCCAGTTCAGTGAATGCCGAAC	PBM binding z-score	4.47
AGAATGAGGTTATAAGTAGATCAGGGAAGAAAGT	PBM binding z-score	2.5
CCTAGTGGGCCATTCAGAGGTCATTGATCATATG	PBM binding z-score	4.44
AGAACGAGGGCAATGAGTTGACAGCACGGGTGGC	PBM binding z-score	2.54
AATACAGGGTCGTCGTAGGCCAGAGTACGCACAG	PBM binding z-score	0.91
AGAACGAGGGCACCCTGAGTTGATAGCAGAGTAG	PBM binding z-score	2.84
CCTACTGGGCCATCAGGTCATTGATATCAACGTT	PBM binding z-score	4.72
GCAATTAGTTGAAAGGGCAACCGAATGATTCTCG	PBM binding z-score	1.39
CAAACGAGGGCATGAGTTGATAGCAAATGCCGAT	PBM binding z-score	2.88
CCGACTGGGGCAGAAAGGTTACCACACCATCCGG	PBM binding z-score	1.76
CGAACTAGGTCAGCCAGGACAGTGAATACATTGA	PBM binding z-score	7.73
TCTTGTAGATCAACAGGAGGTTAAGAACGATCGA	PBM binding z-score	0.594
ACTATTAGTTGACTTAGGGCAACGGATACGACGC	PBM binding z-score	0.309
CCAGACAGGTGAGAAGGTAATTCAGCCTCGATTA	PBM binding z-score	0.682
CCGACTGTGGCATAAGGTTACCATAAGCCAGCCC	PBM binding z-score	0.305
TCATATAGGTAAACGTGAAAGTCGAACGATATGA	PBM binding z-score	2.6
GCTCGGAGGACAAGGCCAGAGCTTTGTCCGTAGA	PBM binding z-score	-0.505

* * *

Tested on: FXR:RXRa (NR concentration 270 nM, RXRa partner concentration 90 nM)
Assay summary: PBM binding z-score (relative to random genomic background probes); higher = stronger binding; sequences stand for … in GC…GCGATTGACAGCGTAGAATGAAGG
Label scheme for PBM binding z-score: low interval = under 0.6, middle interval = from 0.6 up to 3, high interval = 3 and over

Residue sequence	Category label
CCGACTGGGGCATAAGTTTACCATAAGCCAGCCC	low interval
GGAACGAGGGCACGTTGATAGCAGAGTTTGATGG	low interval
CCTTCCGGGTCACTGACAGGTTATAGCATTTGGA	high interval
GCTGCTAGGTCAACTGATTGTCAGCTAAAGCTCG	high interval
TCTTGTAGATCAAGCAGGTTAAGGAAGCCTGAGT	low interval
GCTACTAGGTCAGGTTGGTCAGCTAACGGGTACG	middle interval
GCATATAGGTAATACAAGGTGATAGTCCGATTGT	middle interval
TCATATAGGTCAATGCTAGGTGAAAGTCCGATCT	high interval
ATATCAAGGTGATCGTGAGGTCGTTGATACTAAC	middle interval
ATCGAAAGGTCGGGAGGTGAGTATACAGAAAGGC	middle interval
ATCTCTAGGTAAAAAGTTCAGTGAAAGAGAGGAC	middle interval
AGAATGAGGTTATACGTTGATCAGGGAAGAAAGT	middle interval
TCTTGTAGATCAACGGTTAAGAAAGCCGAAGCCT	low interval
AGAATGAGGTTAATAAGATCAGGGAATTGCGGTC	middle interval
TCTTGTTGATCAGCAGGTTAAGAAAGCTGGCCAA	low interval
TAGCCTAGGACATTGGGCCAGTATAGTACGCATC	low interval
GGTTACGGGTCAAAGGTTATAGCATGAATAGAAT	high interval
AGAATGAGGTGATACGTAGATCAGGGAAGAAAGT	low interval
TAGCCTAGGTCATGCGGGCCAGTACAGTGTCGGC	high interval
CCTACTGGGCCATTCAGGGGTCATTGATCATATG	high interval
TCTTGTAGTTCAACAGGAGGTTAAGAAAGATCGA	middle interval
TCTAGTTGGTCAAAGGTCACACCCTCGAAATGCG	high interval
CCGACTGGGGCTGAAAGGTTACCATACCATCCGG	low interval
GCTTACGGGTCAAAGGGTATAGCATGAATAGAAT	high interval
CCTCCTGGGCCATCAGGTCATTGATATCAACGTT	middle interval
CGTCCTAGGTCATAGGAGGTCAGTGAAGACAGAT	high interval
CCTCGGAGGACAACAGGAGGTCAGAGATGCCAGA	middle interval
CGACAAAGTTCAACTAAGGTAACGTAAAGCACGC	high interval
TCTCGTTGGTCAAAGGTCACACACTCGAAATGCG	high interval
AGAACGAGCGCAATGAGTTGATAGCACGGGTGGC	low interval
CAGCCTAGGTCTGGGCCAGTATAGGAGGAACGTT	low interval
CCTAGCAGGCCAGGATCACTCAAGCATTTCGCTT	low interval
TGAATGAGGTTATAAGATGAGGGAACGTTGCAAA	middle interval
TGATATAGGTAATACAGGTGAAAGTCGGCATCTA	low interval
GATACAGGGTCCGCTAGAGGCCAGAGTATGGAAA	low interval
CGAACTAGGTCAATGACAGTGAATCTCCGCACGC	high interval
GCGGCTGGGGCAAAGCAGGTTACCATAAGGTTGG	middle interval
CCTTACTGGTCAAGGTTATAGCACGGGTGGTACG	middle interval
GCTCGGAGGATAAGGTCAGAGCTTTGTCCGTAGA	middle interval
